target system: NDM-1 (Klebsiella pneumoniae)
assay name: Enzyme activity: determination of IC50, fluorescence assay with CCF2-FA substrate
Format: biochemical
run conditions: enzyme 1 pM, CCF2-FA 1.25 μM, 2 hours at 25° C.; read-out: NDM1 IC50
pIC50: −log10 of the molar value.
Use class 1 when the recorded pIC50 is no lower than 7; use class 0 when it is lower.

Some entries whose results are on file:
{"chemical string": "CCC[C@H](C(=O)O)[C@H](Cc1ccc(-c2cncc(CN3CCCCC3)c2)cc1)c1nn[nH]n1", "label class": "class 0"}
{"chemical string": "O=C(O)[C@@H](C1CCCC1)[C@H](Cc1ccc(C2CCNCC2)cc1)c1nnn[nH]1", "label class": "class 1"}
{"chemical string": "CC(C)[C@H](C(=O)O)[C@H](Cc1ccc(-c2ccc(N)nc2)cc1)c1nnn[nH]1", "label class": "class 1"}
{"chemical string": "CC(C)C[C@H](C(=O)O)[C@H](Cc1ccc(C2=CCNC2)nc1)c1nn[nH]n1", "label class": "class 0"}
{"chemical string": "CC(C)C[C@H](C(=O)O)[C@H](Cc1ccccc1)c1nnn[nH]1", "label class": "class 1"}

Check if pIC50 >= 7 (inclusive). Item: "Nc1ccc(C[C@H](c2nnn[nH]2)[C@@H](C(=O)O)C2CCCC2)cn1"
class 1

Check if pIC50 >= 7 (inclusive). Item: "CC(C)(C)[C@H](C(=O)O)[C@H](Cc1ccc(N)nc1)c1nnn[nH]1"
class 0

###

# key: entry, value: pIC50
target system: NDM-1 (Klebsiella pneumoniae, UniProt C7C422)
Sequence (C7C422 29-270, looked up, species assumed): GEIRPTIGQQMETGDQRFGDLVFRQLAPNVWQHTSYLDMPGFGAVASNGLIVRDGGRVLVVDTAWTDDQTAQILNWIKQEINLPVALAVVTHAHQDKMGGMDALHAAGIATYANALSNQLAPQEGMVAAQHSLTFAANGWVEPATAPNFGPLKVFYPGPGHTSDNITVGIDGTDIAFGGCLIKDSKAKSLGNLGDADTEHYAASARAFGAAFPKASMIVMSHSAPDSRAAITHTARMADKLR
assay name: Enzyme activity: determination of IC50, fluorescence assay with CCF2-FA substrate
Type: biochemical
run conditions: NDM-1 enzyme 1 pM, CCF2-FA 1.25 μM, 2 hours at 25° C.; read-out: NDM1 IC50
Value format note: pIC50 is -log10 of concentration (mol/L); just state the number.

{"compound": "CCC[C@H](C(=O)O)[C@H](Cc1ccccc1-c1ccc(NS(C)(=O)=O)cc1)c1nn[nH]n1", "pIC50": 10.02}
{"compound": "CCC[C@H](C(=O)O)[C@H](Cc1cccc(N2CCCCC2)c1)c1nn[nH]n1", "pIC50": 7.34}
{"compound": "CCC[C@H](C(=O)O)[C@H](Cc1cccc2nsnc12)c1nnn[nH]1", "pIC50": 7.92}
{"compound": "CCC[C@H](C(=O)O)[C@H](Cc1cccc(-c2ccc3c(c2)CCC(N)C3)c1)c1nn[nH]n1 (stereo partly shown)", "pIC50": 7.89}
{"compound": "CCC[C@H](C(=O)O)[C@H](Cc1ccc(CCN2CCCCC2=O)cc1)c1nn[nH]n1", "pIC50": 7.57}
{"compound": "CCC[C@H](C(=O)O)[C@H](Cc1cccc(N2CCOCC2)c1)c1nn[nH]n1", "pIC50": 7.09}

Recorded result, "CC(C)C[C@H](C(=O)O)[C@H](Cc1ccc(N2CC(N3CCN(C)CC3)C2)nc1)c1nnn[nH]1" , pIC50: 6.80

Recorded result, "CCC[C@H](C(=O)O)[C@H](Cc1ccccc1-c1ccc(CO)cc1)c1nn[nH]n1" , pIC50: 8.62

Recorded result, "CC(C)C[C@H](C(=O)O)[C@H](Cc1ccc(N2CCC3(CC2)CNC3)nc1)c1nnn[nH]1" , pIC50: 6.92

Recorded result, CC(C)C[C@H](C(=O)O)[C@H](Cc1ccc(N2CCCC(CO)C2)nc1)c1nnn[nH]1 (stereo partly shown) , pIC50: 7.21

Recorded result, CC(C)C[C@H](C(=O)O)[C@H](Cc1ccc(NCCC(C)N)nc1)c1nnn[nH]1 (stereo partly shown) , pIC50: 6.43

Recorded result, "CC(C)C[C@H](C(=O)O)[C@H](Cc1ccc(N2CC(S(C)(=O)=O)C2)nc1)c1nnn[nH]1" , pIC50: 7.23

Recorded result, CC(C)C[C@H](C(=O)O)[C@H](Cc1ccc(N2CCCC2c2ccccc2)nc1)c1nnn[nH]1 (stereo partly shown) , pIC50: 7.85

Recorded result, CC(C)(C)C(C(=O)O)[C@H](Cc1ccc(Br)s1)c1nnn[nH]1 (stereo partly shown) , pIC50: 6.85

Recorded result, CC(C)C[C@H](C(=O)O)[C@H](Cc1ccc(Oc2ccccc2C2CCCN2)nc1)c1nn[nH]n1 (stereo partly shown) [Example 376] , pIC50: 7.11

Recorded result, "CCC[C@H](C(=O)O)[C@H](Cc1ccc(-c2ccc(CC3CCNCC3)cc2)cc1)c1nn[nH]n1" , pIC50: 7.37
